assay.info: Oral plasma concentration in mice at 100 mg/kg dosage within 4-hr time frame.
Format: ADME, organism-based
Design: route oral, dose 100 mg/kg
test.settings: mouse
assay.endpoint: Cmax
Write the quantity with the unit trailing the number.

>  <input.smiles>
C#C/C=C(\c1ccccc1)c1cc2c(cc1F)nc(N)n2S(=O)(=O)C(C)C

>  <assay.endpoint>
Cmax

>  <observed.value>
16000 ng/mL

$$$$
>  <input.smiles>
C#C/C=C(/c1ccc2nc(N)n(S(=O)(=O)C(C)C)c2c1)c1cc(F)ccc1F

>  <assay.endpoint>
Cmax

>  <observed.value>
9300 ng/mL

$$$$
>  <input.smiles>
C#C/C=C(\c1cccc(F)c1)c1ccc2nc(N)n(S(=O)(=O)C(C)C)c2c1

>  <assay.endpoint>
Cmax

>  <observed.value>
12000 ng/mL

$$$$

Ask: Suppose we examine the compound C#C/C=C(\c1ccc(OC(F)(F)F)cc1)c1ccc2nc(N)n(S(=O)(=O)C(C)C)c2c1 ; what Cmax value has been reported?
Reply: 2000 ng/mL

Ask: Suppose we examine the compound C#C/C=C(\c1cc(F)cc(F)c1)c1ccc2nc(N)n(S(=O)(=O)C(C)C)c2c1 ; what Cmax value has been reported?
Reply: 18000 ng/mL

Ask: Suppose we examine the compound C#C/C=C(\c1ccccc1)c1ccc2nc(N)n(S(=O)(=O)C(C)C)c2c1F ; what Cmax value has been reported?
Reply: 520 ng/mL

Ask: Suppose we examine the compound C#C/C=C(/c1ccc2nc(N)n(S(=O)(=O)C(C)C)c2c1)c1ccccc1F ; what Cmax value has been reported?
Reply: 9200 ng/mL

Ask: Suppose we examine the compound C#C/C=C(\c1cccc(C(F)(F)F)c1)c1ccc2nc(N)n(S(=O)(=O)C(C)C)c2c1 ; what Cmax value has been reported?
Reply: 4900 ng/mL

Ask: Suppose we examine the compound C#C/C=C(\c1cccc(F)c1)c1ccc2nc(N)n(S(=O)(=O)N(C)C)c2c1 ; what Cmax value has been reported?
Reply: 8400 ng/mL
